Target: 14-3-3γ (Homo sapiens)
Construct: made in house; host or cells: E. coli NiCo21 (DE3)
Sequence (P61981 whole entry): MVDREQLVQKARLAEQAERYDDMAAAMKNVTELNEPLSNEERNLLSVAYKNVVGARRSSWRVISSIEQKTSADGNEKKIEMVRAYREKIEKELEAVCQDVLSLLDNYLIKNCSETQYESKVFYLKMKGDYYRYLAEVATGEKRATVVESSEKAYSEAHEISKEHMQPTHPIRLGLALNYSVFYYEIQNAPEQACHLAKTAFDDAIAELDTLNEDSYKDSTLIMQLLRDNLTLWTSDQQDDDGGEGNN
Experiment: Fluorescence anisotropy (FA) binary binding study: 14-3-3 titrated to fluorescein-labelled peptide
Settings: Table S2; KD / KD of previous (one amino acid longer) peptide; replicate 1
Where a SMILES comes first, the peptide text is derived from it. [ ]: non-standard residue; d: D form. The star is where a group is joined. ξ: configuration not given here. FITC = O=C1OC2(c3ccc(O)cc3Oc3cc(O)ccc32)c2ccc(NC(=S)*)cc21; Phe(4-NO2) = N[C@@H](Cc1ccc([N+](=O)[O-])cc1)C(=O)O; ξAla(4-thiazolyl) = NC(Cc1cscn1)C(=O)O; pS = N[C@@H](COP(=O)(O)O)C(=O)O; β3hS = N[C@@H](CO)CC(=O)O; Nva = CCC[C@H](N)C(=O)O; βAla = NCCC(=O)O
Record form. Attribute: Fold change to previous. Fill in for each entry.

Qu. Requested field: Fold change to previous. Item: CCC[C@H](N)C(=O)N[C@@H](Cc1ccc([N+](=O)[O-])cc1)C(=O)NC(Cc1cscn1)C(=O)N[C@@H](COP(=O)(O)O)C(=O)N[C@@H](Cc1ccc([N+](=O)[O-])cc1)C(=O)N[C@@H](CO)CC(=O)NCCC(=O)N[C@@H](Cc1ccc([N+](=O)[O-])cc1)C(=O)N[C@@H](CCCCN)C(=O)N[C@@H](C)C(=O)N[C@@H](CCCCNC(=S)Nc1ccc2c(c1)C(=O)OC21c2ccc(O)cc2Oc2cc(O)ccc21)C(N)=O (stereo partly drawn) [2a] (H-[Nva][Phe(4-NO2)][ξAla(4-thiazolyl)][pS][Phe(4-NO2)][β3hS][βAla][Phe(4-NO2)]KAK(FITC)-NH2)
Ans. 1,72

Qu. Same again, this time with C[C@H](NC(=O)[C@H](CCCCN)NC(=O)[C@H](Cc1ccc([N+](=O)[O-])cc1)NC(=O)CCNC(=O)C[C@H](CO)NC(=O)[C@H](Cc1ccc([N+](=O)[O-])cc1)NC(=O)[C@H](COP(=O)(O)O)NC(=O)C(N)Cc1cscn1)C(=O)N[C@@H](CCCCNC(=S)Nc1ccc2c(c1)C(=O)OC21c2ccc(O)cc2Oc2cc(O)ccc21)C(N)=O (stereo partly drawn) [2c] (H-[ξAla(4-thiazolyl)][pS][Phe(4-NO2)][β3hS][βAla][Phe(4-NO2)]KAK(FITC)-NH2)
Ans. 0,51

Qu. Same again, this time with C[C@H](NC(=O)[C@H](CCCCN)NC(=O)[C@H](Cc1ccc([N+](=O)[O-])cc1)NC(=O)CCNC(=O)C[C@H](CO)NC(=O)[C@H](Cc1ccc([N+](=O)[O-])cc1)NC(=O)[C@H](COP(=O)(O)O)NC(=O)C(Cc1cscn1)NC(=O)[C@@H](N)Cc1ccc([N+](=O)[O-])cc1)C(=O)N[C@@H](CCCCNC(=S)Nc1ccc2c(c1)C(=O)OC21c2ccc(O)cc2Oc2cc(O)ccc21)C(N)=O (stereo partly drawn) [2b] (H-[Phe(4-NO2)][ξAla(4-thiazolyl)][pS][Phe(4-NO2)][β3hS][βAla][Phe(4-NO2)]KAK(FITC)-NH2)
Ans. 3,64

Qu. Same again, this time with C[C@H](NC(=O)[C@H](CCCCN)NC(=O)[C@H](Cc1ccc([N+](=O)[O-])cc1)NC(=O)CCNC(=O)C[C@H](CO)NC(=O)[C@H](Cc1ccc([N+](=O)[O-])cc1)NC(=O)[C@@H](N)COP(=O)(O)O)C(=O)N[C@@H](CCCCNC(=S)Nc1ccc2c(c1)C(=O)OC21c2ccc(O)cc2Oc2cc(O)ccc21)C(N)=O [2d] (H-[pS][Phe(4-NO2)][β3hS][βAla][Phe(4-NO2)]KAK(FITC)-NH2)
Ans. 40,69
